compounds and their reported growth inhibition
assayOverview: NCI Yeast Anticancer Drug Screen. Data for the sgs1 mgt1 strain (AID 161);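 further: 0% = growth of cultures given vehicle only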
conditionDetails: S. cerevisiae sgs1 mgt1 strain, hits give high values; at 50.0 µM unless noted
About 79,000 compounds went through this panel and 15% of them were active in at least one assay; those are over-represented in the sample as a whole. The source made the active and inactive calls. No stated cut-off is given here; in the data, active means growth inhibition above about 70%; inactive means the rest.

Sample answers from the record:
Nc1cncnc1N; 31.9% (inactive)
CCCC1OC(c2cc3c(cc2Br)OCO3)OCC1CC (stereo unspecified); 9.25% (inactive)
CCC1([N+](=O)[O-])COC(CCc2ccccc2)OC1 (stereo unspecified); 10.8% (inactive)
O=C(O)c1cc([N+](=O)[O-])cc2c(=O)c3cnccc3[nH]c12; -1.95% (inactive)
O=C(OC1c2cccc3cccc(c23)C1O)c1ccccc1 (stereo unspecified); 1.55% (inactive)

In plain terms, C[N+](C)(C)CC1CCC/C1=N\OC(=O)c1ccccc1 (stereo unspecified) has a documented growth inhibition of 11.8% (inactive)
